tested on: 786-0 renal; experiment: NCI-60 one-dose screen, 48 h (100 = growth as untreated, 0 = no growth, -100 = all killed); conditions: 10 µM
This is part of a sample that, as a whole, favours compounds with a hit. Of some 83,000 tested, about 20% had one in any assay.
measured property: growth (%)
Answers are plain numbers, in %.

molecule=O=S(=O)(NCCO)c1ccc(OCCOc2ccc(S(=O)(=O)NCCO)cc2)cc1 obs_value=96.9
molecule=CNC(=O)c1cc(Oc2ccc(NC(=O)Nc3ccc(Cl)c(OC4CCCCC4)c3)c(F)c2)ccn1 obs_value=90.4
molecule=COc1cc(CSc2nc3ccc(Cl)cc3c(=O)n2-c2ccccc2)cc(OC)c1OC obs_value=89.3
molecule=COc1ccc(-c2cn[nH]c2-c2cc(OC)c(OC)c(OC)c2)cc1 obs_value=-4.65
molecule=O=C(O)CCCN1C(=O)NC2(C1=O)c1ccccc1-c1ccccc12 obs_value=95.2

Give growth for each of the items listed below.
1. C/C(=N/NC(=O)c1sc(=S)n(C)c1N)c1cc2cc(Cl)ccc2o1
2. O=C(N/N=C\c1cc(Cl)ccc1O)c1ccncc1

OUTPUT:
1: 106; 2: 19.1
